These measurements were taken from the supplement of paper PMC4466140.

# key: entry, value: SPOT peptide array binding signal intensity
Biological target: ScLsb2
Assay: SPOT peptide array binding signal intensity (averaged, normalized) (arbitrary units (background-subtracted, floor 0; scale differs between SH3 domains)); higher = stronger binding of the SH3 domain to the peptide
PARAMETER: SPOT peptide array binding signal intensity

BINDER	RESULT
LKHGWKPLRPIKLIS	≤ 0
PLRRTVMSLPGNHDI	≤ 0
NAGIRPKFILALNDE	≤ 0
